molecular target: Estrogen receptor (Homo sapiens); assay: qHTS assay to identify small molecule agonists of the estrogen receptor alpha (ER-alpha) signaling pathway using the BG1 cell line (AID 743079); settings: BG1Luc4E2 cells, ERE-luciferase agonist, 22 h; series mostly up to 70.3 µM; note: nearly all actives have a fitted effect of over 20% in size
Records with an inconclusive call do not appear. Calls of active or inactive are those of the source. Calls come from the whole dose curve; as a rule, active = well fitted activation curve with a large enough effect in the repeat runs; inconclusive = weak or mixed curves, or effect the other way; inactive = no such curve, though single readings can be large or run the other way.
Result category, one only: yes (1) = active, no (0) = inactive

// known answers, use as guide
CC(C)=CCC/C(C)=C/C=N/O | no (0)
O=C1OC(=O)C2CC=CCC12 (stereo not drawn) | no (0)
CCc1cnc(C(=O)O)c(C(=O)O)c1 | no (0)

Query: In this assay, the call recorded for CC1(C)CC(=O)CC(C)(C)N1 was what?
Result: no (0)

Query: Please give the result for O=C(c1ccc(Cl)cc1)c1ccc(Cl)cc1 too.
Result: no (0)

Query: Please do the same for CCCC(=O)OCc1ccccc1 as well.
Result: no (0)

Query: And what about the compound CC(=O)c1cccnc1 ?
Result: no (0)

Query: And then CO[C@@H]1[C@@H](O[C@@H]2O[C@H](C)[C@@H](O[C@H]3C[C@@](C)(O)[C@@H](O)[C@H](C)O3)[C@H](N(C)C)[C@H]2O)[C@@H](CC=O)C[C@@H](C)[C@@H](O[C@@H]2CC[C@H](N(C)C)[C@@H](C)O2)/C=C/C=C/C[C@@H](C)OC(=O)C[C@H]1OC(C)=O , what is it?
Result: no (0)

Query: Same read-out for CC(COc1ccccc1)NC(C)C(O)c1ccc(O)cc1 (stereo not drawn) ?
Result: no (0)

Query: Moving on to Clc1nc2ccccc2nc1Cl
Result: no (0)
